# AC50 measurements, system: Cytochrome P450 3A4 (Homo sapiens);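 note: CYP3A4 tested as one member of a cytochrome P450 panel screen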
# Sequence (P08684 whole entry): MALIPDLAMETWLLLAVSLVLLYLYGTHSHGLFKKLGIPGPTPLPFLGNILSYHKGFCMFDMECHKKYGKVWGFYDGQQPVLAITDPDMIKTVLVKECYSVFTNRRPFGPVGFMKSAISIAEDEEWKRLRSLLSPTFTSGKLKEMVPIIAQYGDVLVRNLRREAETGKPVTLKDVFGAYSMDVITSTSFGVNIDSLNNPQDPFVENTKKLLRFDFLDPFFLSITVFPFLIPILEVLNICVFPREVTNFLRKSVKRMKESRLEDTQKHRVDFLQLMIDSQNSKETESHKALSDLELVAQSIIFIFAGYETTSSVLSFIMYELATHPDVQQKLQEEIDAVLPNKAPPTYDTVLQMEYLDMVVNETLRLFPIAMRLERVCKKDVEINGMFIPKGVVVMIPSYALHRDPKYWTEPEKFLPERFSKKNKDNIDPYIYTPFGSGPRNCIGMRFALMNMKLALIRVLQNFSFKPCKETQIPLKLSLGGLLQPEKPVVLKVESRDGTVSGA
assayMetric: AC50

{"compound": "Cc1ccc(OCCCOc2cccc3cccnc23)cc1C", "readoutValue": "28.2 µM (inconclusive)"}
{"compound": "Cc1ccc(N[C@H](c2ccccc2)c2ccc3cccnc3c2O)cc1", "readoutValue": "3.16 µM (inconclusive)"}
{"compound": "Cc1cccc(C(=O)c2ccccc2C(=O)O)c1O", "readoutValue": "25.1 µM (inconclusive)"}
{"compound": "CCOCCCNC(=O)C1CCN(S(=O)(=O)N2CC(C)CC(C)C2)CC1 (stereo unspecified)", "readoutValue": "15.8 µM (inconclusive)"}
{"compound": "OCCN=c1cc(-c2ccccc2)oc2ccc(Cl)cc12", "readoutValue": "10 µM (inconclusive)"}
{"compound": "N#CCCn1c(=O)c(-c2cccc(C#N)c2)nc2cnc(N3CCOCC3)nc21", "readoutValue": "15.8 µM (inconclusive)"}

FYI, the data here is from ChEMBL document CHEMBL1201862.
